- From the text: The solubility of the drug (Q) to be used in the drug sustained-releasing medical contact lens of the present invention in water may be calculated by using the following equation.
Reported values of Solubility in water for individual entries
measurement_name: Solubility in water (%)

1. CC(=O)OCC(=O)[C@@]1(O)CC[C@H]2[C@@H]3CCC4=CC(=O)CC[C@]4(C)[C@H]3[C@@H](O)C[C@@]21C [hydrocortisone acetate]
0.0014
2. O=C(O)c1cc(O)c2c3nc4ccccc4oc-3cc(=O)c2n1 [pirenoxine]
0.01
3. O=C(O)Cc1ccccc1Nc1c(Cl)cccc1Cl [diclofenac sodium]
0.24
4. CCn1cc(C(=O)O)c(=O)c2cc(F)c(N3CCNCC3)cc21 [norfloxacin]
0.01
5. C[C@@H]1C[C@H]2[C@@H]3CCC4=CC(=O)C=C[C@]4(C)[C@@]3(F)[C@@H](O)C[C@]2(C)[C@@]1(O)C(=O)COC(=O)c1cccc(S(=O)(=O)[O-])c1.[Na+] [dexamethasone sodium sulfobenzoate]
0.55
6. NC(=O)Cc1cccc(C(=O)c2ccccc2)c1N [nepafenac]
0.01
7. CC(C(=O)O)c1ccc2c(c1)Cc1cccnc1O2 (centres unmarked) [pranoprofen]
0.01
8. CCN[C@H]1CN(CCCOC)S(=O)(=O)c2sc(S(N)(=O)=O)cc21 [brinzolamide]
0.055

###

Where a name gives a salt, the structure may show the parent alone.
Mark 0 for Solubility in water values under 0.01%, and 1 for everything at or above.

1. COc1ccc2c(c1)c(CC(=O)O)c(C)n2C(=O)c1ccc(Cl)cc1 [indomethacin]
0
2. CO/N=C(\C(=O)N[C@@H]1C(=O)N2C(C(=O)O)=C(CSc3nnnn3C)CS[C@H]12)c1csc(N)n1 [cefmenoxime]
1
3. CN1CCC(=C2c3ccccc3CC(=O)c3sccc32)CC1 [ketotifen fumarate]
1
4. CCCC(=O)N1CCCN(c2nc(N)c3cc(OC)c(OC)cc3n2)CC1 [bunazosin hydrochloride]
1
5. CCNC(=O)CCC/C=C\C[C@@H]1[C@@H](/C=C/[C@@H](O)CCc2ccccc2)[C@H](O)C[C@@H]1O [bimatoprost]
1
6. CCn1cc(C(=O)O)c(=O)c2cc(F)c(N3CCNC(C)C3)c(F)c21 (stereo not shown) [lomefloxacin hydrochloride]
1
7. CN(C)CC/C=C1/c2ccccc2COc2ccc(CC(=O)O)cc21 [olopatadine hydrochloride]
1
8. O=C(O)C(=O)Nc1cccc(-c2nnn[nH]2)c1 [acitazanolast hydrate]
1
9. CC(=O)[C@@]1(O)CC[C@H]2[C@@H]3C[C@H](C)C4=CC(=O)C=C[C@]4(C)[C@@]3(F)[C@@H](O)C[C@@]21C [fluorometholone]
0

###

Structures can show the parent of a compound that is named as a salt.
Reported values of Solubility in water for individual entries
measurement_name: Solubility in water

1) COc1c(N2CCNC(C)C2)c(F)cc2c(=O)c(C(=O)O)cn(C3CC3)c12 (stereo not shown) [gatifloxacin]
0.55%
2) Nc1nc2c(ncn2COCCO)c(=O)[nH]1 [acyclovir]
0.16%
3) C[C@@H]1CN([C@H]2CC[C@](C#N)(c3ccc(F)cc3)CC2)CC[C@]1(C(=O)O)c1ccccc1 [levocabastine hydrochloride]
0.01%
4) CC(C)OC(=O)CCC/C=C\C[C@@H]1[C@@H](/C=C/C(F)(F)COc2ccccc2)[C@H](O)C[C@@H]1O [tafluprost]
0.01%
